system: Mus musculus; assay: In vivo hypoglycemic activity expressed as percent glucose normalization in db/db mice at 5 mg/Kg; assay type: functional
observation-type: Glucose normalisation (%)
Please respond with the number in % and leave the unit unwritten.

| compound | test-system | result-unit | Glucose normalisation |
| --- | --- | --- | --- |
| CCCSC(Cc1ccc2oc(Cc3nc(-c4ccccc4)oc3C)cc2c1)C(=O)O (stereo unspecified) | Mus musculus | % | 94 |
| COC(Cc1ccc2oc(Cc3nc(-c4ccccc4)oc3C)cc2c1)C(=O)O (stereo unspecified) | Mus musculus | % | 94 |

Indicate the recorded Glucose normalisation value for this compound: CCOC(Cc1ccc2oc(Cc3nc(-c4ccccc4)oc3C)cc2c1)C(=O)O (stereo unspecified) 100

For the compound C=CCOC(Cc1ccc2oc(Cc3nc(-c4ccccc4)oc3C)cc2c1)C(=O)O (stereo unspecified) , give its measured Glucose normalisation value. 92

// Input: Cc1oc(-c2ccccc2)nc1Cc1cc2cc(CC(Sc3ccccc3)C(=O)O)ccc2o1 (stereo unspecified) . Output its Glucose normalisation only. 70

Annotate the compound CCSC(Cc1ccc2oc(Cc3nc(-c4ccccc4)oc3C)cc2c1)C(=O)O (stereo unspecified) with its measured Glucose normalisation. 86

For the compound C#CCOC(Cc1ccc2oc(Cc3nc(-c4ccccc4)oc3C)cc2c1)C(=O)O (stereo unspecified) , give its reported Glucose normalisation. 100

Return value of Glucose normalisation for input Cc1oc(-c2ccccc2)nc1Cc1cc2cc(CC(SCc3ccccc3)C(=O)O)ccc2o1 (stereo unspecified) , no commentary. 100

Look up and state reported Glucose normalisation for CCOC(CCc1ccc2oc(Cc3nc(-c4ccccc4)oc3C)cc2c1)C(=O)O (stereo unspecified) 100

Return the recorded Glucose normalisation value; entry: CCCOC(Cc1ccc2oc(Cc3nc(-c4ccccc4)oc3C)cc2c1)C(=O)O (stereo unspecified) 100

Indicate its recorded Glucose normalisation; the compound in question is CCCCCCCCSC(Cc1ccc2oc(Cc3nc(-c4ccccc4)oc3C)cc2c1)C(=O)O (stereo unspecified) 96

====

test system: Mus musculus; experiment: In vivo hypoglycemic activity expressed as percent glucose normalization in ob/ob mice at 0.1 mg/Kg; format: functional
Each entry gets 0 if its Glucose normalisation stays under 90%, and 1 if its Glucose normalisation is 90% or above.

| compound | group |
| --- | --- |
| Cc1cccc(-c2nc(Cc3cc4cc(CC5SC(=O)NC5=O)ccc4o3)c(C)o2)c1 (stereo unspecified) | 0 |
| Cc1oc(-c2ccc(Cl)cc2)nc1Cc1cc2cc(CC3SC(=O)NC3=O)ccc2o1 (stereo unspecified) | 1 |

Now consider a different compound.
hey, is Glucose normalisation for this one >= 90%? Cc1oc(-c2ccccc2)nc1Cc1cc2cc(CC3SC(=O)NC3=O)ccc2o1 (stereo unspecified) 1

====

tested on: Mus musculus; experiment: In vivo hypoglycemic activity expressed as percent glucose normalization in db/db mice at 0.05 mg/Kg; format: functional
Is Glucose normalisation at least 90%? Then rule met. If not, rule not met.

| compound | group |
| --- | --- |
| COC(Cc1ccc2oc(Cc3nc(-c4ccccc4)oc3C)cc2c1)C(=O)O (configuration not stated) | rule not met |

Has CCCOC(Cc1ccc2oc(Cc3nc(-c4ccccc4)oc3C)cc2c1)C(=O)O (configuration not stated) a recorded Glucose normalisation greater than or equal to 90%? rule not met

Please check the record Cc1oc(-c2ccccc2)nc1Cc1cc2cc(CC(OCCCO)C(=O)O)ccc2o1 (configuration not stated) and state if its Glucose normalisation is at or above 90%. rule not met
